Data provenance is patent US12492188B2.

# SYSTEM_NAME: human TLR9 (Homo sapiens, UniProt Q9NR96)
# Construct: host or cells: HEK-Blue cells (HEK293-derived reporter line)
# Sequence (Q9NR96 26-1032): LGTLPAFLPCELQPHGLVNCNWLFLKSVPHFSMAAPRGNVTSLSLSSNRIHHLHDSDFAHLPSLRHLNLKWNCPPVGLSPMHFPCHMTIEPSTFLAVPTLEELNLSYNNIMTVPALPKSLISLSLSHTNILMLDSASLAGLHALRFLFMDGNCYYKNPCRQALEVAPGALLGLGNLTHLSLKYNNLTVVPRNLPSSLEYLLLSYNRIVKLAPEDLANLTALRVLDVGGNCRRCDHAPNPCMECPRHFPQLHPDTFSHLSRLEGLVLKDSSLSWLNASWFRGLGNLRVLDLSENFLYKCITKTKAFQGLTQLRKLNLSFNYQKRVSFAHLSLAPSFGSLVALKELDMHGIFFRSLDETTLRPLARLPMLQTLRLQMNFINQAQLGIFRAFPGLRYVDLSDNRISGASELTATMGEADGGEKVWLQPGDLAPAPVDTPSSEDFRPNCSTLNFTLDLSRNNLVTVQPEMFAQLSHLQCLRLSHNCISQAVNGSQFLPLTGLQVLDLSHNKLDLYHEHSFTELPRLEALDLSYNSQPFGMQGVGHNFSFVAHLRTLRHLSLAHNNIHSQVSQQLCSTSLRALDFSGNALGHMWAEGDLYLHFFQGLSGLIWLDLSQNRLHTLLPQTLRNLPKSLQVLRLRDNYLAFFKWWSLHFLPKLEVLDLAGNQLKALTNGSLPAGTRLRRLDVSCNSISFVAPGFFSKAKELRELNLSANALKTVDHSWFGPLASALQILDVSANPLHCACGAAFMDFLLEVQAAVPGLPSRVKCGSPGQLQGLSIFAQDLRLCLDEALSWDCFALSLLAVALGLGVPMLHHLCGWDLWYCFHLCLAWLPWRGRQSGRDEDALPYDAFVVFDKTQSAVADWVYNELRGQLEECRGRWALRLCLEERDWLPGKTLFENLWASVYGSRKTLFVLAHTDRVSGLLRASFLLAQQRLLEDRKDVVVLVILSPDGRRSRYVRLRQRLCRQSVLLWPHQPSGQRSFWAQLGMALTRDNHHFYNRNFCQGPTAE
# MEASUREMENT_NOTES: TLR9 inhibition reporter assay (HEK-Blue cells, secreted embryonic alkaline phosphatase reporter)
# Type: cell-based
# PARTICULARS: HEK-Blue cells overexpressing human TLR9, stimulated with ODN2006 5 nM; read-out: TLR 9 IC50
pIC50: −log10 of the molar value.
Binary classification by pIC50, with 7 as an inclusive lower bound for Satisfied; all other cases are Not satisfied.

[[record]]
compound = "COc1ccc(-c2nc3c(C)cc(C4CCN(C5CC6CCC(C5)N6CC5CC5)CC4)cc3n2C)cc1OC (stereo not shown) [Example 149]"
class_name = "Satisfied"

[[record]]
compound = "Cc1cc(C2CCN(C3CCN(CC(C)C)CC3)CC2)cc2[nH]c(-c3cccc4cccnc34)nc12 [Example 82]"
class_name = "Satisfied"

[[record]]
compound = "Cc1cc(C2CCN(C3CC4CCC(C3)N4CC3CC3)CC2)cc2c1nc(-c1ccc(S(C)(=O)=O)cc1)n2C (single isomer, unassigned) [Example 154]"
class_name = "Satisfied"

[[record]]
compound = "COc1ccc(-c2nc3ccc(-c4ccc(CN5CCC(N(C)C)CC5)cc4)cc3n2C)cc1 [Example 376]"
class_name = "Not satisfied"


====

Catalogue of IC50 values
# SYSTEM_NAME: human TLR7 (Homo sapiens, UniProt Q9NYK1)
# Sequence (Q9NYK1 27-1049): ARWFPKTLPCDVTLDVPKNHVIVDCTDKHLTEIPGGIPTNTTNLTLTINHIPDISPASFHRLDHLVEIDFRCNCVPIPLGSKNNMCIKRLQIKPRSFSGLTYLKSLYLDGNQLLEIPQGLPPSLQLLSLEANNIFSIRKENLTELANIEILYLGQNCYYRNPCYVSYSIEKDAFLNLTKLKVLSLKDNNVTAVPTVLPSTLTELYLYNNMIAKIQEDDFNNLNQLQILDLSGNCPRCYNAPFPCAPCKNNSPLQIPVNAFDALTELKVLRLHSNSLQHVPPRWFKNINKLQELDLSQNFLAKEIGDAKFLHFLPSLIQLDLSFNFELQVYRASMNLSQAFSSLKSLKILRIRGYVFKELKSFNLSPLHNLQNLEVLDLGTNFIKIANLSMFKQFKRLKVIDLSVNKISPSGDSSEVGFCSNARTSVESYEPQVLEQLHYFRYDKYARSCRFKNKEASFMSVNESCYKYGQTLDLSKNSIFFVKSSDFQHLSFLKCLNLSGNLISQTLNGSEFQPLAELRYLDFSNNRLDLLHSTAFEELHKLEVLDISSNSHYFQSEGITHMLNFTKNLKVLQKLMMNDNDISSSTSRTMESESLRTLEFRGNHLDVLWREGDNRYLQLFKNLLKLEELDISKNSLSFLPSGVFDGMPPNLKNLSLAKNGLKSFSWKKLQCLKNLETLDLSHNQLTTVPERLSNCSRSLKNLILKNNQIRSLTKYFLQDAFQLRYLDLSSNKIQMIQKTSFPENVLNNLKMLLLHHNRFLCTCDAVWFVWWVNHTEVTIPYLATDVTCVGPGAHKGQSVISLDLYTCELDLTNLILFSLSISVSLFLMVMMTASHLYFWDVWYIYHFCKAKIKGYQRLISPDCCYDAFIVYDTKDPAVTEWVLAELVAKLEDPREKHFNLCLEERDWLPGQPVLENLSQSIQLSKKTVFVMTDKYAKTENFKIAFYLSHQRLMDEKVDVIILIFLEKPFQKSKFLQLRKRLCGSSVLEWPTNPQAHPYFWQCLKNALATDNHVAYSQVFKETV
# MEASUREMENT_NOTES: TLR7 inhibition reporter assay (HEK-Blue cells, secreted embryonic alkaline phosphatase reporter)
# PARTICULARS: HEK-Blue cells overexpressing human TLR7, stimulated with gardiquimod 7.5 μM; read-out: TLR 7 IC50
RECORDED_METRIC: IC50 (µM)

[[record]]
compound = "Cc1cc(-c2ccc(CN3CCC(N(C)C4CC4)CC3)c(F)c2)cc2c1nc(-c1ccc(S(C)(=O)=O)cc1)n2C [Example 394]"
system_name = "human TLR7 (Homo sapiens, UniProt Q9NYK1)"
inequality_sign = ">"
value_measured = 50

[[record]]
compound = "Cc1cc(-c2ccc(N3CCC(N(C)C)CC3)cc2)cc2c1nc(-c1ccc(S(C)(=O)=O)cc1)n2C [Example 368]"
system_name = "human TLR7 (Homo sapiens, UniProt Q9NYK1)"
inequality_sign = "="
value_measured = 1.4

[[record]]
compound = "CC(C)CN1CCC(N2CCC(c3cc(F)c4c(c3)nc(-c3ccc(S(C)(=O)=O)cc3)n4C)CC2)CC1 [Example 201]"
system_name = "human TLR7 (Homo sapiens, UniProt Q9NYK1)"
inequality_sign = "="
value_measured = 14.4

[[record]]
compound = "CC(C)N1CCCC(N2CCC(c3ccc4nc(-c5ccc(S(C)(=O)=O)cc5)n(C)c4c3F)CC2)CC1 (single isomer, unassigned) [Example 114]"
system_name = "human TLR7 (Homo sapiens, UniProt Q9NYK1)"
inequality_sign = ">"
value_measured = 50

[[record]]
compound = "Cn1c(-c2ccc(S(C)(=O)=O)cc2)nc2cc(C3CCN(C4CC5CCC(C4)N5C4CCC4)CC3)cc(F)c21 (single isomer, unassigned) [Example 216]"
system_name = "human TLR7 (Homo sapiens, UniProt Q9NYK1)"
inequality_sign = "="
value_measured = 23.2

[[record]]
compound = "Cn1c(-c2ccc(S(C)(=O)=O)cc2)nc2cc(C3CCN(C4CCN(CC5CC5)CC4)CC3)cc(F)c21 [Example 203]"
system_name = "human TLR7 (Homo sapiens, UniProt Q9NYK1)"
inequality_sign = "="
value_measured = 15.4


====

# SYSTEM_NAME: UniProtKB Q9NR97
# Sequence (Q9NR97 27-1041): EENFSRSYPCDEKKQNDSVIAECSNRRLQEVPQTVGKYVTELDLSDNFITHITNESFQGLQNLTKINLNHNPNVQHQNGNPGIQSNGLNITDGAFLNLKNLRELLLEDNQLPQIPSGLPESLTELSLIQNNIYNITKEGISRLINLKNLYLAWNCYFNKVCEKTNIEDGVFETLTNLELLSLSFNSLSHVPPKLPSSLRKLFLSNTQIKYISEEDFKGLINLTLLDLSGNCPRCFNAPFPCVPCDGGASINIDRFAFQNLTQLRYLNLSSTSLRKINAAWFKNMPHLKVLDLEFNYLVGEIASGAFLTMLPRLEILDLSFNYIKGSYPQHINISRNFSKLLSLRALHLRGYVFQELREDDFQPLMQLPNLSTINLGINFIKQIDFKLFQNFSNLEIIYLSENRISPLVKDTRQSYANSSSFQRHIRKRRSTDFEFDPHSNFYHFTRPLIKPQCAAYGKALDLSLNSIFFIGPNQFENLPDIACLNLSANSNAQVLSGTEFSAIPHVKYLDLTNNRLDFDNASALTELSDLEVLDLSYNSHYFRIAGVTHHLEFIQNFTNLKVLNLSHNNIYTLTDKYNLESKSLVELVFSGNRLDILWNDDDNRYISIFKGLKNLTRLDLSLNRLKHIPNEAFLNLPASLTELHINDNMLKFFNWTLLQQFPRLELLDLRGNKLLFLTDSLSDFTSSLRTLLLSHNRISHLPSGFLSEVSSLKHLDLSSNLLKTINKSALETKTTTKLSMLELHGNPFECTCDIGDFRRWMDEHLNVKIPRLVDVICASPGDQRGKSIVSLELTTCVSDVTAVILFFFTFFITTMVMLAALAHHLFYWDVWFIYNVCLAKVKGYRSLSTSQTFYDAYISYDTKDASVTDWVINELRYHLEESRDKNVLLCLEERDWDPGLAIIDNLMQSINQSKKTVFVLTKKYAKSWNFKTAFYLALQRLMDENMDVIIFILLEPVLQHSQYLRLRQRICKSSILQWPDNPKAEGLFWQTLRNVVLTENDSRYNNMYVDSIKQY
# MEASUREMENT_NOTES: TLR8 inhibition reporter assay (HEK-Blue cells, secreted embryonic alkaline phosphatase reporter)
# PARTICULARS: HEK-Blue cells overexpressing human TLR8, stimulated with R848 15.9 μM; read-out: TLR 8 IC50
# Source text: TLR7/8/9 Inhibition Reporter Assays HEK-Blue™-cells (Invivogen) overexpressing human TLR7, TLR8 or TLR9 receptors were used for screening inhibitors of these receptors using an inducible SLAP (secreted embryonic alkaline phosphatase) reporter gene under the control of the […] minimal promoter fused to five NF-κB and AP-1-binding sites. […]
pIC50: −log10 of the molar value.
Catalogue of pIC50 values
RECORDED_METRIC: pIC50

[[record]]
compound = "Cn1c(-c2ccc(S(C)(=O)=O)cc2)nc2cc(F)c(C3CCN(C4CC5CCC(C4)N5C4CCOCC4)CC3)cc21 (stereo not shown) [Example 236]"
recorded_metric = "pIC50"
value_measured = "< 4.30"

[[record]]
compound = "COc1ccc(-c2nc3c(C)cc(C4CCN(C5CC6CCC(C5)N6CC(C)C)CC4)cc3[nH]2)cc1OC (single isomer, unassigned) [Example 19]"
recorded_metric = "pIC50"
value_measured = "< 4.30"

[[record]]
compound = "CCOP(=O)(OCC)c1ccc(-c2nc3c(C)cc(C4CCN(C5CCN(C(C)C)CC5)CC4)cc3n2C)cc1"
recorded_metric = "pIC50"
value_measured = 4.37

[[record]]
compound = "Cc1cc(C2CCN(C3CCCN(C4CCOCC4)CC3)CC2)cc2c1nc(-c1ccc(S(C)(=O)=O)cc1)n2C (single isomer, unassigned) [Example 307]"
recorded_metric = "pIC50"
value_measured = "< 4.30"

[[record]]
compound = "COc1ccc(-c2nc3c(C)cc(C4CCN(C5CC6CCC(C5)N6C5CCOCC5)CC4)cc3n2C)cc1OC (single isomer, unassigned) [Example 167]"
recorded_metric = "pIC50"
value_measured = "< 4.60"

[[record]]
compound = "COc1ccc(-c2nc3ccc(C4CCN(C5CCN(CC(C)C)CC5)CC4)cc3[nH]2)cc1OC"
recorded_metric = "pIC50"
value_measured = "< 4.30"

[[record]]
compound = "CN(C)C1CCN(Cc2ccc(-c3ccc4nc(-c5ccc(S(C)(=O)=O)cc5F)n(C)c4c3)cc2)CC1"
recorded_metric = "pIC50"
value_measured = 6.52

[[record]]
compound = "COc1ccc(-c2nc3cc(C4CCN(C5CCN(C(C)C)CC5)CC4)ccc3n2C(C)C)cc1OC"
recorded_metric = "pIC50"
value_measured = 4.54

[[record]]
compound = "CCn1c(-c2ccc(OC)c(OC)c2)nc2ccc(C3CCN(C4CCN(C(C)C)CC4)CC3)cc21 (single isomer, unassigned)"
recorded_metric = "pIC50"
value_measured = "< 4.30"

[[record]]
compound = "Cc1cc(C2CCN(C3CC4CCC(C3)N4C3CCC3)CC2)cc2c1nc(-c1ccc(S(C)(=O)=O)c(F)c1)n2C (single isomer, unassigned)"
recorded_metric = "pIC50"
value_measured = "< 4.30"

[[record]]
compound = "Cn1c(-c2ccc(S(C)(=O)=O)cc2)nc2c(F)cc(C3CCN(C4CC5CCC(C4)N5CC4CC4)CC3)cc21 (single isomer, unassigned) [Example 282]"
recorded_metric = "pIC50"
value_measured = "< 4.30"

[[record]]
compound = "Cc1cc(-c2ccc(C3CCN(C4CCN(C)CC4)CC3)cc2)cc2c1nc(-c1ccc(S(C)(=O)=O)cc1)n2C"
recorded_metric = "pIC50"
value_measured = 5.89

[[record]]
compound = "Cn1c(-c2ccc(S(C)(=O)=O)cc2)nc2c(F)c(C3CCN(C4CC5CCC(C4)N5CC4COC4)CC3)ccc21 (single isomer, unassigned) [Example 193]"
recorded_metric = "pIC50"
value_measured = "< 4.30"


====

# SYSTEM_NAME: human TLR9 (Homo sapiens)
# Construct: host or cells: HEK-Blue cells (HEK293-derived reporter line)
# MEASUREMENT_NOTES: TLR9 inhibition reporter assay (HEK-Blue cells, secreted embryonic alkaline phosphatase reporter)
# Assay type: cell-based
Catalogue of IC50 values
RECORDED_METRIC: IC50 (nM)

[[record]]
molecule = "Cc1cc(C2CCN(C3CC4CCC(C3)N4C3CCOCC3)CC2)cc2c1nc(-c1ccc(S(C)(=O)=O)cc1)n2C (single isomer, unassigned) [Example 160]"
system_name = "human TLR9 (Homo sapiens)"
recorded_metric = "IC50"
value_measured = 52

[[record]]
molecule = "Cn1c(-c2ccc(S(C)(=O)=O)cc2)nc2ccc(C3CCN(C4CC5CCC(C4)N5CC4CC4)CC3)c(F)c21 (centres unmarked) [Example 269]"
system_name = "human TLR9 (Homo sapiens)"
recorded_metric = "IC50"
value_measured = 180

[[record]]
molecule = "Cn1c(-c2ccc(S(C)(=O)=O)cc2)nc2ccc(C3CCN(C4CCN(C5CCC5)CC4)CC3)c(F)c21 [Example 262]"
system_name = "human TLR9 (Homo sapiens)"
recorded_metric = "IC50"
value_measured = 170

[[record]]
molecule = "CS(=O)(=O)c1ccc(-c2nc3ccc(C4CCN(C5CCN(C6CC6)CC5)CC4)c(F)c3[nH]2)cc1 [Example 178]"
system_name = "human TLR9 (Homo sapiens)"
recorded_metric = "IC50"
value_measured = 240

[[record]]
molecule = "COCCN1C2CCC1CC(N1CCC(c3ccc4c(nc(-c5ccc(S(C)(=O)=O)cc5)n4C)c3F)CC1)C2 (single isomer, unassigned) [Example 199]"
system_name = "human TLR9 (Homo sapiens)"
recorded_metric = "IC50"
value_measured = 75

[[record]]
molecule = "CC(C)CN1C2CCC1CC(N1CCC(c3cc4c(cc3F)nc(-c3ccc(S(C)(=O)=O)cc3)n4C)CC1)C2 (single isomer, unassigned) [Example 228]"
system_name = "human TLR9 (Homo sapiens)"
recorded_metric = "IC50"
value_measured = 69

[[record]]
molecule = "Cn1c(-c2ccc(S(C)(=O)=O)cc2)nc2ccc(C3CCN(C4CC5CCC(C4)N5C4CCC4)CC3)c(F)c21 (single isomer, unassigned) [Example 270]"
system_name = "human TLR9 (Homo sapiens)"
recorded_metric = "IC50"
value_measured = 65

[[record]]
molecule = "Cn1c(-c2ccc(S(C)(=O)=O)cc2)nc2cc(C3CCN(C4CC5CCC(C4)N5CC4CC4)CC3)c(F)cc21 (single isomer, unassigned) [Example 249]"
system_name = "human TLR9 (Homo sapiens)"
recorded_metric = "IC50"
value_measured = 32

[[record]]
molecule = "Cn1c(-c2ccc(S(C)(=O)=O)cc2)nc2c(F)c(C3CCN(C4CC5CCC(C4)N5CC4CC4)CC3)ccc21 (single isomer, unassigned) [Example 192]"
system_name = "human TLR9 (Homo sapiens)"
recorded_metric = "IC50"
value_measured = 190

[[record]]
molecule = "COc1ccc(-c2nc3c(C)cc(C4CCN(C5CC6CCC(C5)N6CC5CC5)CC4)cc3n2C)cc1OC (centres unmarked) [Example 148]"
system_name = "human TLR9 (Homo sapiens)"
recorded_metric = "IC50"
value_measured = 34

[[record]]
molecule = "Cc1cc(-c2ccc(N3CCN(C4CCC4)CC3)cc2)cc2c1nc(-c1ccc(S(C)(=O)=O)cc1)n2C [Example 174]"
system_name = "human TLR9 (Homo sapiens)"
recorded_metric = "IC50"
value_measured = 480

[[record]]
molecule = "Cn1c(-c2ccc(S(C)(=O)=O)cc2)nc2cc(C3CCN(C4CCN(C5CCC5)CC4)CC3)c(F)cc21 [Example 243]"
system_name = "human TLR9 (Homo sapiens)"
recorded_metric = "IC50"
value_measured = 940

[[record]]
molecule = "Cn1c(-c2ccc(S(C)(=O)=O)cc2)nc2c(F)c(C3CCN(C4CC5CCC(C4)N5CC4COC4)CC3)ccc21 (single isomer, unassigned) [Example 193]"
system_name = "human TLR9 (Homo sapiens)"
recorded_metric = "IC50"
value_measured = 82

[[record]]
molecule = "Cn1c(-c2ccc(S(C)(=O)=O)cc2)nc2cc(F)c(C3CCN(C4CCN(C5CC5)CC4)CC3)cc21 [Example 222]"
system_name = "human TLR9 (Homo sapiens)"
recorded_metric = "IC50"
value_measured = 130

[[record]]
molecule = "COCCN1C2CCC1CC(N1CCC(c3cc4c(cc3F)nc(-c3ccc(S(C)(=O)=O)cc3)n4C)CC1)C2 (single isomer, unassigned) [Example 239]"
system_name = "human TLR9 (Homo sapiens)"
recorded_metric = "IC50"
value_measured = 290

[[record]]
molecule = "CS(=O)(=O)c1ccc(-c2nc3ccc(C4CCN(C5CCN(CC6CC6)CC5)CC4)c(F)c3[nH]2)cc1 [Example 179]"
system_name = "human TLR9 (Homo sapiens)"
recorded_metric = "IC50"
value_measured = 180

[[record]]
molecule = "CC(C)CN1C2CCC1CC(N1CCC(c3ccc4nc(-c5ccc(S(C)(=O)=O)cc5)[nH]c4c3F)CC1)C2 (single isomer, unassigned) [Example 219]"
system_name = "human TLR9 (Homo sapiens)"
recorded_metric = "IC50"
value_measured = 65

[[record]]
molecule = "CC(C)CN1CCC(N2CCC(c3ccc4nc(-c5ccc(S(C)(=O)=O)cc5)[nH]c4c3F)CC2)CC1 [Example 177]"
system_name = "human TLR9 (Homo sapiens)"
recorded_metric = "IC50"
value_measured = 120

[[record]]
molecule = "Cc1cc(C2CCN(C3CC4(C3)CN(CC3CCC3)C4)CC2)cc2c1nc(-c1ccc(S(C)(=O)=O)cc1)n2C [Example 143]"
system_name = "human TLR9 (Homo sapiens)"
recorded_metric = "IC50"
value_measured = 85

[[record]]
molecule = "COc1ccc(-c2nc3ccc(C4CCN(C5CCN(CC(C)C)CC5)CC4)c(F)c3[nH]2)cc1OC [Example 133]"
system_name = "human TLR9 (Homo sapiens)"
recorded_metric = "IC50"
value_measured = 2200

[[record]]
molecule = "Cn1c(-c2ccc(S(C)(=O)=O)cc2)nc2c(F)c(C3CCN(C4CCN(C5CC5)CC4)CC3)ccc21 [Example 185]"
system_name = "human TLR9 (Homo sapiens)"
recorded_metric = "IC50"
value_measured = 700

[[record]]
molecule = "Cc1cc(C2CCN(C3CCCN(CC4CCC4)CC3)CC2)cc2c1nc(-c1ccc(S(C)(=O)=O)cc1)n2C (centres unmarked) [Example 138]"
system_name = "human TLR9 (Homo sapiens)"
recorded_metric = "IC50"
value_measured = 62

[[record]]
molecule = "Cn1c(-c2ccc(S(C)(=O)=O)cc2)nc2c(F)c(C3CCN(C4CCN(C5CCOCC5)CC4)CC3)ccc21 [Example 187]"
system_name = "human TLR9 (Homo sapiens)"
recorded_metric = "IC50"
value_measured = 520

[[record]]
molecule = "Cc1cc(-c2ccc(N3CCN(C4CCOCC4)CC3)cc2)cc2c1nc(-c1ccc(S(C)(=O)=O)cc1)n2C [Example 176]"
system_name = "human TLR9 (Homo sapiens)"
recorded_metric = "IC50"
value_measured = 680

[[record]]
molecule = "Cn1c(-c2ccc(S(C)(=O)=O)cc2)nc2cc(C3CCN(C4CC5CCC(C4)N5C4COC4)CC3)cc(F)c21 (single isomer, unassigned) [Example 214]"
system_name = "human TLR9 (Homo sapiens)"
recorded_metric = "IC50"
value_measured = 4700

[[record]]
molecule = "COCCN1CCC(N2CCC(c3ccc4c(nc(-c5ccc(S(C)(=O)=O)cc5)n4C)c3F)CC2)CC1 [Example 188]"
system_name = "human TLR9 (Homo sapiens)"
recorded_metric = "IC50"
value_measured = 440

